target: ΔF508-CFTR (Homo sapiens, UniProt P13569, DEL508-508); assay: Membrane potential optical assay for potentiators of ΔF508-CFTR (double-addition HTS, FLIPR III); details: temperature-corrected ΔF508 CFTR NIH 3T3 cells; potentiation with forskolin activation
Sequence (P13569 with tags, fused parts or gaps DEL508-508): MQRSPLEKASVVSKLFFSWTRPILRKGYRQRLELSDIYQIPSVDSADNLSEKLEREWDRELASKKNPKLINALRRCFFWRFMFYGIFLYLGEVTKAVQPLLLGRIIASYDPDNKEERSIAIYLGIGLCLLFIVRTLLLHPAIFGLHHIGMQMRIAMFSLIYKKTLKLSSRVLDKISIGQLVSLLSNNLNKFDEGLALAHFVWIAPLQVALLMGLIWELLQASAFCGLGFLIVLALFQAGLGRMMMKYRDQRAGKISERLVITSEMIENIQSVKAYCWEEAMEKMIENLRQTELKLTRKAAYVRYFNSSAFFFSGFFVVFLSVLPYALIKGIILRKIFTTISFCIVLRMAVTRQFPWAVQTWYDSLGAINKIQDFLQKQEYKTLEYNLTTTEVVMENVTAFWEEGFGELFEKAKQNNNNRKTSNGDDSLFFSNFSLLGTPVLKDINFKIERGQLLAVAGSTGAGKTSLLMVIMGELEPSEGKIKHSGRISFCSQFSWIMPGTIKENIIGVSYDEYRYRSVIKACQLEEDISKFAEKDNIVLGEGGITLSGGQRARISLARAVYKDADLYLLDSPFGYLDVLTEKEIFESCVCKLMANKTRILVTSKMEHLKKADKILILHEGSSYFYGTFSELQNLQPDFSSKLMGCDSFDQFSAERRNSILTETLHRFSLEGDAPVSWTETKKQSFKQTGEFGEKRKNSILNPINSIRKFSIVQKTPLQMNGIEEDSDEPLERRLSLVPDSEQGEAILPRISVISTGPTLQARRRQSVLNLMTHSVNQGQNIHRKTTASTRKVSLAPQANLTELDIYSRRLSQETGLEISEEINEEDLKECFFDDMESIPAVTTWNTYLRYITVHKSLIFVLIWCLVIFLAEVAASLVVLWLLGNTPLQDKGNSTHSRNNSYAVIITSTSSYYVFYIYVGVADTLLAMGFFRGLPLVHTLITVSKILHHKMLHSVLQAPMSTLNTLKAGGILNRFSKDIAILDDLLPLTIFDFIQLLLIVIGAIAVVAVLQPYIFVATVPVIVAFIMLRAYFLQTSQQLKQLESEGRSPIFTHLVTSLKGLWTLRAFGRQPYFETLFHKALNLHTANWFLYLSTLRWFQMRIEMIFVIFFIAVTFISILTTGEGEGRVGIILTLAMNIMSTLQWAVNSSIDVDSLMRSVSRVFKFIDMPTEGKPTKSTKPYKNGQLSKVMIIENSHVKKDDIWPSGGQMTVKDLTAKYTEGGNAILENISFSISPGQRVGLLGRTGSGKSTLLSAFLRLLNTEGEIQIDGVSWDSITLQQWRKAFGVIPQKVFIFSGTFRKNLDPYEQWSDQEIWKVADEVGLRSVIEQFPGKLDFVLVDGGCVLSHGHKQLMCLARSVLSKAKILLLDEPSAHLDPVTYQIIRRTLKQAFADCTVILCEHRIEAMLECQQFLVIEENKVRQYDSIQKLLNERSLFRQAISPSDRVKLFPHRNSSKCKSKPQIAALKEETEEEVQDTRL
QUANTITY_MEASURED: EC50

| SMILES_STR | TARGET_DESC | EC50 |
| --- | --- | --- |
| Cc1cc2[nH]cc(C(=O)Nc3cc(O)c(C4CCCC4)cc3C#N)c(=O)n2c1 | ΔF508-CFTR (Homo sapiens, UniProt P13569, DEL508-508) | < 5 µM |
| Cc1cc2[nH]cc(C(=O)Nc3ccc4cc[nH]c4c3)c(=O)n2n1 | ΔF508-CFTR (Homo sapiens, UniProt P13569, DEL508-508) | > 20 µM |

# evaluate next
q: Retrieve EC50 measured for Cc1cc2[nH]cc(C(=O)Nc3cc(O)c(C4CCCC4)cc3C(F)(F)F)c(=O)n2c1 and print it.
a: < 5 µM

meta.source: patent US8552006B2
